Test system: HIV mutant strain 1 (E138K/G140S/Q148H/N155H)
Format: cell-based
stated.conditions: FC=EC50 of the mutant strain/EC50 of the wild strain, HeLa-CD4 cells
Experimental: Serial dilutions of a test sample were prepared in a 96-well microplate (50 μL/well). 2.5×10^5 cells/mL of a HeLa-CD4 cell suspension was dispensed at 100 μL/well to the plate containing the test sample. Then, an HIV virus solution (wild strain and mutant strain) was dispensed at 50 μL/well. The plate was mixed with a plate mixer and cultured for 3 days in a CO2 incubator. The culture supernatant in each well was removed by suction. […] Then, luminescence intensity was measured using MicroBeta TRILUX.
measured.endpoint: FC (fold change) for mutant strain 1

Noted for CCN1C(=O)c2c(O)c(=O)c(-c3nnc(Cc4c(F)cc(F)cc4F)s3)cn2N2C[C@@H](C)C[C@@H]12 : its FC (fold change) for mutant strain 1 reads 4.7
